Target Under Test: IRAK4 (Homo sapiens)
Construct: endogenous in cells; host or cells: OCI-LY10
Sequence (Q9NWZ3 whole entry): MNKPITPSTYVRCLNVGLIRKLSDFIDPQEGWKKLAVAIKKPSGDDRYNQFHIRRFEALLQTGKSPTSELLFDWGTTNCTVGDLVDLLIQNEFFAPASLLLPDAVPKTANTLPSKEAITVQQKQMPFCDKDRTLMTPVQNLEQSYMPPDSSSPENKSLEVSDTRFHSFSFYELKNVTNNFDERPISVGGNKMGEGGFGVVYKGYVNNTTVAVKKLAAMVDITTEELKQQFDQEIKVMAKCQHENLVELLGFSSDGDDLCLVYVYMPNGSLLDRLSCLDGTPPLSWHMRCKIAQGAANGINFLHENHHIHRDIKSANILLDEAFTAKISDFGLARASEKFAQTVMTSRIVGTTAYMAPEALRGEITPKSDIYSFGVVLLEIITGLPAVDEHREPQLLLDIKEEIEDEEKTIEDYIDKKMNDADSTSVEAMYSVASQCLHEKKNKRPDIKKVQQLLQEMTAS
Method: IRAK4 MSD degradation in OCI-LY10
Type: cell-based
Study Conditions: OCI-LY10 cells, 24 hrs, Meso Scale Discovery

Compound	DC50
Cn1c(=O)n(C2CCC(=O)NC2=O)c2cccc(C3CCN(C[C@H]4CC[C@H](n5cc6cc(NC(=O)c7cncc(C(F)(F)F)n7)ccc6n5)CC4)C(=O)C3)c21 (stereo partly shown)	< 10 nM
CN(C[C@H]1CC[C@H](n2cc3cc(NC(=O)c4cccc(C(F)(F)F)n4)ccc3n2)CC1)C1CCN(c2cccc3c2n(C)c(=O)n3C2CCC(=O)NC2=O)C[C@@H]1F (stereo partly shown)	< 10 nM
COc1cc2nn([C@H]3CC[C@H](CN4CCC5(CCN(c6cccc7c6n(C)c(=O)n7C6CCC(=O)NC6=O)CC5)C(F)(F)C4)CC3)cc2cc1NC(=O)c1cncc(C)c1 (stereo partly shown)	< 10 nM
COc1cc2nn([C@H]3CC[C@H](CN4CCC5(CCN(c6cccc7c(C8CCC(=O)NC8=O)nn(C)c67)CC5)C(F)(F)C4)CC3)cc2cc1NC(=O)c1cncc(C#N)c1 (stereo partly shown)	< 10 nM
Cc1cncc(C(=O)Nc2cc3cn([C@H]4CC[C@H](CN5CCC6(CN(c7cccc8c7n(C)c(=O)n8C7CCC(=O)NC7=O)C6)C(F)(F)C5)CC4)nc3cc2C(C)(C)O)c1 (stereo partly shown)	< 10 nM
Cn1c(=O)n(C2CCC(=O)NC2=O)c2ccc(F)c([C@@H]3CCN(C[C@H]4CC[C@H](n5cc6cc(NC(=O)c7cncc(C#N)c7)c(C(C)(C)O)cc6n5)CC4)CC3(F)F)c21 (single isomer, unassigned)	< 10 nM
Cn1c(=O)n(C2CCC(=O)NC2=O)c2cccc(N3CC4(CCN(C[C@H]5CC[C@H](n6cc7cc(NC(=O)c8cccc(C(F)(F)F)c8)ccc7n6)CC5)CC4(F)F)C3)c21 (stereo partly shown)	< 10 nM
COc1ccc2c(c1[C@H]1CCN(C[C@H]3CC[C@H](n4cc5cc(NC(=O)c6cncc(C(F)(F)F)n6)ccc5n4)CC3)CC1(F)F)n(C)c(=O)n2C1CCC(=O)NC1=O (single isomer, unassigned)	< 10 nM
CN(C[C@H]1CC[C@H](c2cn3cc(NC(=O)c4cncc(C(F)(F)F)n4)ccc3n2)CC1)[C@@H]1CCN(c2cccc3c2n(C)c(=O)n3C2CCC(=O)NC2=O)C[C@@H]1F (single isomer, unassigned)	< 10 nM
COc1cc2nc([C@H]3CC[C@H](CN(C)[C@H]4CCN(c5cccc6c5n(C)c(=O)n6C5CCC(=O)NC5=O)C[C@H]4F)CC3)cn2cc1NC(=O)c1cncc(C(F)(F)F)n1 (single isomer, unassigned)	< 10 nM

====

Target Under Test: IRAK4 (Homo sapiens)
Construct: endogenous in cells; host or cells: OCI-LY10
Method: IRAK4 MSD degradation in OCI-LY10
Assay type: cell-based
Study Conditions: OCI-LY10 cells, 24 hrs, Meso Scale Discovery

Molecule	DC50
COc1cc2nn([C@H]3CC[C@H](CN4CCC5(CCN(c6cccc7c6n(C)c(=O)n7C6CCC(=O)NC6=O)CC5)C(F)(F)C4)CC3)cc2cc1C(=O)Nc1cncc(C#N)c1 (stereo partly drawn) [I-228]	< 10 nM
Cn1c(=O)n(C2CCC(=O)NC2=O)c2cccc(N3CC(COC[C@H]4CC[C@H](n5cc6cc(NC(=O)c7cccc(C(F)(F)F)c7)ccc6n5)CC4)C3)c21 (stereo partly drawn) [I-126]	10 to 100 nM
COc1cc2nn([C@H]3CC[C@H](CN4CCC5(CC4)CCN(c4cccc6c4c(C)nn6C4CCC(=O)NC4=O)CC5)CC3)cc2cc1NC(=O)c1cncc(C#N)c1 (stereo partly drawn) [I-49]	10 to 100 nM
